FYI, the data here is from the supplement of paper PMC10567573.

B1: C2orf65 (parent)
chain: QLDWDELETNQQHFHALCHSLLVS

# Variants of: B1
# procedure_text: protein stability index of a GFP-peptide fusion (GPS, HEK-293T) (PSI 1-6); higher = more stable;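 further: lentivirally expressed fusions sorted by FACS into six bins by GFP to DsRed ratio, PSI derived from sequencing read proportions per bin multiplied by bin number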
# experimental_setup: c terminus: a fixed tail appended
For each record, write down the corresponding protein stability index.
One number for each entry.

Field: example entries. Status: answers known.
{"columns": ["entry_sequence", "protein stability index"],
 "data": [
  ["QLDWDEQETNQQHFHALCHSLLVS [L7Q]", 2.79],
  ["QLKWDELETNQQHFHALCHSLLVS [D3K]", 1.83],
  ["CLDWDELETNQQHFHALCHSLLVS [Q1C]", 1.65],
  ["QLDWPELETNQQHFHALCHSLLVS [D5P]", 2.34],
  ["QLDWDELETNQQNFHALCHSLLVS [H13N]", 2.35]
]}

Quick request: protein stability index for each listed item, please.
1. QLDWDELETNQQHFHADCHSLLVS [L17D]
2. QLDCDELETNQQHFHALCHSLLVS [W4C]
3. QLDWDELETNQPHFHALCHSLLVS [Q12P]

4.07
3.19
2.73
